# system_name: steroid sulfatase (Rattus norvegicus, UniProt P15589)
# Construct: the liver and the uterus were excised from each rat; from tissue; host or cells: rat liver and uterus homogenate (2,000 x g supernatant) after 5 days of dosing
# Sequence (P15589 20-577): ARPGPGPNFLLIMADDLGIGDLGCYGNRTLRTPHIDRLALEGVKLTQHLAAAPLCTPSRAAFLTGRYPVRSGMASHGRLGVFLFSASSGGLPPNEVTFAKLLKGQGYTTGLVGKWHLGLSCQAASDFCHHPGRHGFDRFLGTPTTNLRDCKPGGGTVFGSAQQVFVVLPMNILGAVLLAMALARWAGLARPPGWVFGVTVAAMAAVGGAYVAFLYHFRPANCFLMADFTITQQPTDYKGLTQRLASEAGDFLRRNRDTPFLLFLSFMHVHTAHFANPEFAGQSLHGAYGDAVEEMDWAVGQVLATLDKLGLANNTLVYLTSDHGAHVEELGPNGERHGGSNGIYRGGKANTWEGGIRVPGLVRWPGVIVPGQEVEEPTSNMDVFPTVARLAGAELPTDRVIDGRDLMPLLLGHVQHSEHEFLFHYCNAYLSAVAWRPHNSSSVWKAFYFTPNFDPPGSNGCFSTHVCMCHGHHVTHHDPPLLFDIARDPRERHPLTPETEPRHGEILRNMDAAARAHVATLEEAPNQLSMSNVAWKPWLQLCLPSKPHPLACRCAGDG
# experiment_description: In vivo inhibitory effect on steroid sulfatase (rat liver and uterus homogenates after 5 days of dosing)
# cond: po, once a day for 5 days, female SD rats, uterus, 4 hours after final administration, read-out: Inhibitory rate (0.5 mg/kg, p.o., %) Uterus
Property: inhibition at 0.5 mg/kg; scope: individual compounds
Enter your answer as a number in %; do not include the unit.

N#Cc1ccc(N(Cc2ccc(OS(N)(=O)=O)cc2)n2cnnc2)cc1 [Example 38]    79
NS(=O)(=O)Oc1ccc(-c2ccc(OS(N)(=O)=O)cc2)cc1 [Example 21, biphenyl-4,4′-diyl disulfamate]    97.6
NS(=O)(=O)Oc1ccc(-c2ccc([N+](=O)[O-])cc2)cc1 [Example 16, 4′-nitrobiphenyl-4-yl sulfamate]    100
NS(=O)(=O)Oc1ccc(-c2ccccc2[N+](=O)[O-])cc1 [Example 1, 2′-nitrobiphenyl-4-yl sulfamate]    94.9
N#Cc1ccccc1-c1ccc(OS(N)(=O)=O)cc1 [Example 3, 2′-cyanobiphenyl-4-yl sulfamate]    93.8

Proceed to the following item.
Inquiry: Report measured inhibition at 0.5 mg/kg on steroid sulfatase (Rattus norvegicus, UniProt P15589); entry: N#Cc1cc([N+](=O)[O-])ccc1-c1ccc(OS(N)(=O)=O)cc1 [Example 25, 2′-cyano-4′-nitrobiphenyl-4-yl sulfamate]
Reply text: 100

* * *

Property: inhibition at 0.003 µM; scope: individual molecules
# system_name: steroid sulfatase (Homo sapiens, UniProt P08842)
# Sequence (P08842 22-583): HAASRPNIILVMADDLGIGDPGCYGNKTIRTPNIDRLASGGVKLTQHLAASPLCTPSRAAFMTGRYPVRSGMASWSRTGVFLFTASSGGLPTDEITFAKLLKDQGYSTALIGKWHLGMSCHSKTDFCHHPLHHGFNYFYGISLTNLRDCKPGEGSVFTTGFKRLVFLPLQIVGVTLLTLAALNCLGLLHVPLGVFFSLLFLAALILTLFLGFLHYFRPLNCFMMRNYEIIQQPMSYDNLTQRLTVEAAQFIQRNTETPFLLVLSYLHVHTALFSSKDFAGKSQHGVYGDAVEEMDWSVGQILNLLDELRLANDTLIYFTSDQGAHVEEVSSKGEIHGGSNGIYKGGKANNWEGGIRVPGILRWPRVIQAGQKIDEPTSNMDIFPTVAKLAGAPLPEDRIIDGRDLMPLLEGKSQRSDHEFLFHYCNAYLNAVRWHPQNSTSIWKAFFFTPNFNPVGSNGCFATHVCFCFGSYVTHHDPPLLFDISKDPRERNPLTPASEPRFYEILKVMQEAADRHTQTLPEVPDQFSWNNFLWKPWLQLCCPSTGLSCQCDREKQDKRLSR
# experiment_description: In vitro inhibitory effect on steroid sulfatase (intact MCF-7 cells, [3H]estrone 3-sulfate hydrolysis)
# Assay type: cell-based
# Design: Six-well plates (9.4 cm^2/well) were inoculated with intact MCF-7 human breast cancer cells; endogenous in cells; host or cells: MCF-7 human breast cancer cells
# cond: MCF7; 3 × 10^−9 M test compound; intact MCF-7 human breast cancer cells; 37° C., 20 hours; read-out: Inhibitory rate (3 × 10^−9 M. %)
Please state the number and follow it with the unit.

NS(=O)(=O)Oc1ccc(-c2ccc([N+](=O)[O-])cc2[N+](=O)[O-])cc1 [Example 23, 2′,4′-dinitrobiphenyl-4-yl sulfamate]    67%
N#Cc1ccc(-c2ccc(OS(N)(=O)=O)cc2)c(C#N)c1 [Example 27, 2′,4′-dicyanobiphenyl-4-yl sulfamate]    94%
N#Cc1ccccc1-c1ccc(OS(N)(=O)=O)cc1 [Example 3, 2′-cyanobiphenyl-4-yl sulfamate]    76%

Proceed to the following item.
Inquiry: Report measured inhibition at 0.003 µM on steroid sulfatase (Homo sapiens, UniProt P08842); entry: N#Cc1cc([N+](=O)[O-])ccc1-c1ccc(OS(N)(=O)=O)cc1 [Example 25, 2′-cyano-4′-nitrobiphenyl-4-yl sulfamate]
Reply text: 87%

* * *

Property: inhibition at 0.5 mg/kg; scope: individual compounds
# system_name: steroid sulfatase (Rattus norvegicus, UniProt P15589)
# Construct: the liver and the uterus were excised from each rat; from tissue; host or cells: rat liver and uterus homogenate (2,000 x g supernatant) after 5 days of dosing
# Sequence (P15589 20-577): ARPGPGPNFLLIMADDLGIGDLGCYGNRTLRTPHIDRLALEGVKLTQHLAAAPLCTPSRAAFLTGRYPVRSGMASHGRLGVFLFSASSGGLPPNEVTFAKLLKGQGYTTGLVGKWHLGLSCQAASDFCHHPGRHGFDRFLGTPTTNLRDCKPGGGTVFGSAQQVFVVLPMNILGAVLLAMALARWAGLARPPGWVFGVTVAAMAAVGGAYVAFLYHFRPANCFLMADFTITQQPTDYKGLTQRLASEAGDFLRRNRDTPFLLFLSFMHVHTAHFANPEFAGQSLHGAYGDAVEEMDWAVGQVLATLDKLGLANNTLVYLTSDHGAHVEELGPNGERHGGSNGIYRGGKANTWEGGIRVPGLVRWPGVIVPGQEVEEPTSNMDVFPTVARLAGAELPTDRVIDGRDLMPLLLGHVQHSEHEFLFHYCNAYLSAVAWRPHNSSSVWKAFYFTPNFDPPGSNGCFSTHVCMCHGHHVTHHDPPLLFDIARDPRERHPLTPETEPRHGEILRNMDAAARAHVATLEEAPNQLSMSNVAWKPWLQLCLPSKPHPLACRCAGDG
# experiment_description: In vivo inhibitory effect on steroid sulfatase (rat liver and uterus homogenates after 5 days of dosing)
# cond: po, once a day for 5 days, female SD rats, liver, 4 hours after final administration, read-out: Inhibitory rate (0.5 mg/kg, p.o., %) Liver
Please state the number and follow it with the unit.

# count of solved cases: 4
N#Cc1cc([N+](=O)[O-])ccc1-c1ccc(OS(N)(=O)=O)cc1 [Example 25, 2′-cyano-4′-nitrobiphenyl-4-yl sulfamate]    99.5%
N#Cc1ccccc1-c1ccc(OS(N)(=O)=O)cc1 [Example 3, 2′-cyanobiphenyl-4-yl sulfamate]    95.4%
N#Cc1ccc(N(Cc2ccc(OS(N)(=O)=O)cc2)n2cnnc2)cc1    85.3%
NS(=O)(=O)Oc1ccc(-c2ccc(OS(N)(=O)=O)cc2)cc1 [Example 21, biphenyl-4,4′-diyl disulfamate]    97.2%

Inquiry: Entry NS(=O)(=O)Oc1ccc(-c2ccc([N+](=O)[O-])cc2)cc1 [Example 16, 4′-nitrobiphenyl-4-yl sulfamate] needs its inhibition at 0.5 mg/kg filled in; supply it.
Reply text: 97%

Inquiry: Entry NS(=O)(=O)Oc1ccc(-c2ccccc2[N+](=O)[O-])cc1 [Example 1, 2′-nitrobiphenyl-4-yl sulfamate] needs its inhibition at 0.5 mg/kg filled in; supply it.
Reply text: 91.2%
